- Assay target: Alpha-2C adrenergic receptor (Homo sapiens, UniProt P18825)
- Sequence (P18825 whole entry): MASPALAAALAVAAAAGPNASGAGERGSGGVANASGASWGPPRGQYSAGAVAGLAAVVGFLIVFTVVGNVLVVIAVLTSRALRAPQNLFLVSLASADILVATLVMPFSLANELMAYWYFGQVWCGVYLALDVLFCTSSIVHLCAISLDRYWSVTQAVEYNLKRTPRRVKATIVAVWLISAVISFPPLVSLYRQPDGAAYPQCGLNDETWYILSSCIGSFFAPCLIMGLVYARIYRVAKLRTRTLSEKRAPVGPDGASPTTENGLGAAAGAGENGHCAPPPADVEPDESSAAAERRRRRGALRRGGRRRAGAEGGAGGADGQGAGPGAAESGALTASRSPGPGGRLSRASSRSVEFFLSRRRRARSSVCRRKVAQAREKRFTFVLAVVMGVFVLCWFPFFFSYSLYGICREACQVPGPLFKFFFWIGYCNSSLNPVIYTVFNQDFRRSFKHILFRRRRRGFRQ
Property label: Ki (nM)
Express your answer in nM, writing the number without its unit.

get_value(item= CC1=C(C(=O)NCCCN2CCC(C#N)(c3ccc(F)cc3)CC2)[C@@H](c2ccc(F)c(F)c2)CC(=O)N1C , readout=Ki) returns 1100

---

- Assay target: Alpha-1B adrenergic receptor (Homo sapiens, UniProt P35368)
- Sequence (P35368 whole entry): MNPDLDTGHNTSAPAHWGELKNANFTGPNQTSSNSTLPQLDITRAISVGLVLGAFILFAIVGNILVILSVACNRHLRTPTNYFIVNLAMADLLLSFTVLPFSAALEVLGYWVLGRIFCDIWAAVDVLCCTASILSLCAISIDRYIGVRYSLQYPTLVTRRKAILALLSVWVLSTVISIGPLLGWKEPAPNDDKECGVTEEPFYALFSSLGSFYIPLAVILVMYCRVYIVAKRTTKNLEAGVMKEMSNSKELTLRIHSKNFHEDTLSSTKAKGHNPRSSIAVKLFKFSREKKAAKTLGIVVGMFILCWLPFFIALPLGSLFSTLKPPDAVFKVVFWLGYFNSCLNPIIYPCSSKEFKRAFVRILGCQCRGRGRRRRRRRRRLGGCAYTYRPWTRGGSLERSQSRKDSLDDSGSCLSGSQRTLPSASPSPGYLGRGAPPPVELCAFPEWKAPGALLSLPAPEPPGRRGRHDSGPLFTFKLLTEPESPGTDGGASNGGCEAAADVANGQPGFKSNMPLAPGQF
- Assay method text: In vitro antagonism at Alpha-1B adrenergic receptor
Property label: Ki (nM)
Express your answer in nM, writing the number without its unit.

Use the examples below as a reference point.
CC1=C(C(=O)NCCCN2CCC(C#N)(c3ccc(F)cc3F)CC2)[C@@H](c2ccc(F)c(F)c2)CC(=O)N1C = 842
CC1=C(C(=O)NCCCN2CCC(C#N)(c3ccc(F)cc3)CC2)[C@@H](c2ccc(F)c(F)c2)CC(=O)N1C = 425
CC1=C(C(=O)NCCCN2CCC(c3ccccc3C#N)CC2)[C@@H](c2ccc(F)c(F)c2)CC(=O)N1 = 330
CC1=C(C(=O)NCCCN2CCC(c3ccc(F)cc3)CC2)[C@@H](c2ccc(F)c(F)c2)CC(=O)N1 = 37
CC1=C(C(=O)NCCCN2CCC(c3ccc(F)cc3C#N)CC2)[C@@H](c2ccc(F)c(F)c2)CC(=O)N1C = 366

Bench note, Alpha-1B adrenergic receptor (Homo sapiens, UniProt P35368): entry CC1=C(C(=O)NCCCN2CCC(c3ccc(F)cc3)CC2)[C@@H](c2ccc(F)c(F)c2)CC(=O)N1C , its Ki = 54

Bench note, Alpha-1B adrenergic receptor (Homo sapiens, UniProt P35368): entry CC1=C(C(=O)NCCCN2CCC(c3ccccc3C#N)CC2)[C@@H](c2ccc(F)c(F)c2)CC(=O)N1C , its Ki = 1200

Bench note, Alpha-1B adrenergic receptor (Homo sapiens, UniProt P35368): entry CC1=C(C(=O)NCCCN2CCC(c3ccc(F)cc3C#N)CC2)[C@@H](c2ccc(F)c(F)c2)CC(=O)N1 , its Ki = 100

Bench note, Alpha-1B adrenergic receptor (Homo sapiens, UniProt P35368): entry CC1=C(C(=O)NCCCN2CCC(C#N)(c3ccc(F)cc3)CC2)[C@@H](c2ccc(F)c(F)c2)CC(=O)N1 , its Ki = 1040

Bench note, Alpha-1B adrenergic receptor (Homo sapiens, UniProt P35368): entry CC1=C(C(=O)NCCCN2CCC(C#N)(c3ccc(F)cc3F)CC2)[C@@H](c2ccc(F)c(F)c2)CC(=O)N1 , its Ki = 805
